# Measured On: IKZF2 (Homo sapiens, UniProt Q96SW2+Q9UKS7)
# Sequence (Q9UKS7 1-500 isoform Q9UKS7-2): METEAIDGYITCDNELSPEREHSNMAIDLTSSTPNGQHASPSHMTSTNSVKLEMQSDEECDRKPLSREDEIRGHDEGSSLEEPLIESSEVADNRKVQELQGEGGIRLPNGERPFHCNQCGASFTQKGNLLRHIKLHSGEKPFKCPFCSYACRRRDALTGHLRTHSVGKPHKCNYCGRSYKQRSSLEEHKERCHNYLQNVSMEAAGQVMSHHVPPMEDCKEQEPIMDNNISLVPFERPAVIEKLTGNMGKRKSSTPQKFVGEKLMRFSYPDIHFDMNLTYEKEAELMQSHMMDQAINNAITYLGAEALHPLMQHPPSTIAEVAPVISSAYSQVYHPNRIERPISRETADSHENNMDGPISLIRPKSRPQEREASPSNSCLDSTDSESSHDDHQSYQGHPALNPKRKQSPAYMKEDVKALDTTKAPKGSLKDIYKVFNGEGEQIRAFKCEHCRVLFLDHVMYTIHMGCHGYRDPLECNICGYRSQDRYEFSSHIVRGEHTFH
# Sequence (Q96SW2 whole entry): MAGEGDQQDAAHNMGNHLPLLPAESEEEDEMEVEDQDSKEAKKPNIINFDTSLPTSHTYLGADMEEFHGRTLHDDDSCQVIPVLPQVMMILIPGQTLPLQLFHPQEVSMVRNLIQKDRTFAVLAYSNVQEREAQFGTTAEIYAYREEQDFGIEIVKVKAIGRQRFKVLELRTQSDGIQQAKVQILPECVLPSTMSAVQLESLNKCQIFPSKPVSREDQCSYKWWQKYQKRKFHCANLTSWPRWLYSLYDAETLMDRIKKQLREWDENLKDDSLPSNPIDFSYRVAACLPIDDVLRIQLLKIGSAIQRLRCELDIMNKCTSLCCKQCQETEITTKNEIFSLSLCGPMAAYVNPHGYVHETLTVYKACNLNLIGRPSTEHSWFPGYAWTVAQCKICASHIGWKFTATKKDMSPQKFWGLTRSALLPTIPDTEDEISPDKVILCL
# Sequence (Q16531 whole entry partner): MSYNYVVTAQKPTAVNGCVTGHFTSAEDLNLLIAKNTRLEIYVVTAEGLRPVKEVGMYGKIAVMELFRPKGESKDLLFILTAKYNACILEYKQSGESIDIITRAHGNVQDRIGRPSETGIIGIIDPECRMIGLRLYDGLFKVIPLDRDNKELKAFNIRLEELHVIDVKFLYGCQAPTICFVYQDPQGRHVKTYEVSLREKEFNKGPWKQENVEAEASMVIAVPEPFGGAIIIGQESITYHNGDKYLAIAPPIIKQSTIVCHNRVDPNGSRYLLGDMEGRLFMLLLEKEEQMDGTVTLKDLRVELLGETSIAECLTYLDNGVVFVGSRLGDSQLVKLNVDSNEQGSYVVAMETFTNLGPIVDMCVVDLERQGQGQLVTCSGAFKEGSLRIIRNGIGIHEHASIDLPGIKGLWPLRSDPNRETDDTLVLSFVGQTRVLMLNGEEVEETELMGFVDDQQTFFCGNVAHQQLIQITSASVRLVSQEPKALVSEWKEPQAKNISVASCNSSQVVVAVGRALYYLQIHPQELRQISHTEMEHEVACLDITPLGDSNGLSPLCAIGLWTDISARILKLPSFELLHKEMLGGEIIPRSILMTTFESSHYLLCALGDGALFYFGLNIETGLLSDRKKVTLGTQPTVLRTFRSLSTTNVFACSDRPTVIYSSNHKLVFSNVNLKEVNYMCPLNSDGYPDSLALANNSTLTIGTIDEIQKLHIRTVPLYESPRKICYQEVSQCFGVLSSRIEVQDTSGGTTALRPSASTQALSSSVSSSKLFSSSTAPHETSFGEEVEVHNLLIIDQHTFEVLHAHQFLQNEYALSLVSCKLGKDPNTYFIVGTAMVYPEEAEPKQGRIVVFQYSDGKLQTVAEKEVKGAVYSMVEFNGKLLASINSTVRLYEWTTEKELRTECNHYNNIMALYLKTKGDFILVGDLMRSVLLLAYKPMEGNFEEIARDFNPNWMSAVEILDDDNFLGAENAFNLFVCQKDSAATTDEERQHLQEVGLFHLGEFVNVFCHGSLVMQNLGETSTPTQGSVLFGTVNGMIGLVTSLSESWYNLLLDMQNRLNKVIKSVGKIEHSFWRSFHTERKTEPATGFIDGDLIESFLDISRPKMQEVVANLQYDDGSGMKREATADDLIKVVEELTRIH
# Procedure Details: HEK293 HiBiT in vitro degradation of IKZF2
# Assay type: cell-based
# Set-up: expressed in transfected cells
# Measurement Parameters: HEK293 HiBiT, 18-24 hr incubation, normalized to DMSO control; read-out: IKZF2 EC50
Recorded Endpoint: log10(DC50) (log10 of the value in nM)
log10 DC50, nM

compound="O=C1CCC(N2Cc3cc(C[C@H]4CCCC[C@@H]4NC4CC5CCC(C4)O5)ccc3C2=O)C(=O)N1 (stereo partly drawn) [Example 112]" assay_result=0.48
compound="O=C1CCC(N2Cc3cc(C[C@H]4CCCC[C@@H]4NC4CCC5COC4O5)ccc3C2=O)C(=O)N1 (stereo partly drawn)" assay_result=0.95
compound="O=C1CCC(N2Cc3c(ccc(C[C@H]4OCCC[C@@H]4NC4CCOCC4)c3F)C2=O)C(=O)N1 (stereo partly drawn)" assay_result=1.15
compound="CC(C)N[C@H]1CCCC[C@@H]1Cc1ccc2c(c1)CN(C1CCC(=O)NC1=O)C2=O (stereo partly drawn)" assay_result=0.60
compound="O=C1CCC(N2Cc3c(ccc(C[C@H]4CCCC[C@@H]4NC4CC5CCCC5C4)c3F)C2=O)C(=O)N1 (stereo partly drawn)" assay_result=0.30

// log10(DC50) value for CCC(C)N[C@H]1CCCC[C@@H]1Cc1ccc2c(c1)CN(C1CCC(=O)NC1=O)C2=O (stereo partly drawn) [Example 176] : 0.48

// log10(DC50) value for CCC(C)N[C@H]1CCCC[C@@H]1Cc1ccc2c(c1)CN(C1CCC(=O)NC1=O)C2=O (single isomer, unassigned) [Example 299] : 0.30

// log10(DC50) value for CC(N[C@H]1CCCC[C@@H]1Cc1ccc2c(c1)CN(C1CCC(=O)NC1=O)C2=O)C1CCCCC1 (stereo partly drawn) : 1.11

// log10(DC50) value for CC(COc1ccccc1)N[C@H]1CCCC[C@@H]1Cc1ccc2c(c1)CN(C1CCC(=O)NC1=O)C2=O (stereo partly drawn) : 1.04

// log10(DC50) value for [2H]C1(N[C@H]2CCCC[C@@H]2Cc2ccc3c(c2F)CN(C2CCC(=O)NC2=O)C3=O)CCC(F)(F)CC1 (stereo partly drawn) : 0.00

// log10(DC50) value for O=C1CCC(N2Cc3cc(C[C@H]4C=C(F)CC[C@@H]4NC4CCCCC4)ccc3C2=O)C(=O)N1 (stereo partly drawn) : 1.95

// log10(DC50) value for O=C1CCC(N2Cc3cc(C[C@H]4CCCC[C@@H]4N4CC(Oc5ccccc5)C4)ccc3C2=O)C(=O)N1 (stereo partly drawn) : 1.32

// log10(DC50) value for CC(C)N[C@H]1CCCO[C@@H]1Cc1ccc2c(c1)CN(C1CCC(=O)NC1=O)C2=O (stereo partly drawn) : 1.59

// log10(DC50) value for O=C1CCC(N2Cc3cc(C[C@H]4CCCC[C@@H]4NC4CCC5(CC4)CC5)ccc3C2=O)C(=O)N1 (stereo partly drawn) : 0.30

// log10(DC50) value for CC(N[C@H]1CCCC[C@@H]1Cc1ccc2c(c1)CN(C1CCC(=O)NC1=O)C2=O)C1CCCC1 (stereo partly drawn) [Example 201] : 0.85

Reference source: patent US11897862B2
